- Test system: HCT-116
- assay_details: MTT cytotoxicity, human tumor cell strain
- Format: cell-based
- settings: HCT-116, Colon, 72 hours
Would you kindly list pEC50 for each of these compounds?
// field semantics: pEC50 = negative decimal log of concentration (mol/L)

Enquiry: Dear colleague, please send me the reported pEC50 for C=C(C)C1CCC2(C(=O)O)CCC3(C)C(CCC4C5(C)CCC(=O)C(C)(CO)C5CCC43C)C12 (stereo not drawn) when you can.
Return: 7.05

Enquiry: Given the compound CC(C)C1CCC2(C(=O)O)CCC3(C)C(CCC4C5(C)CCC(O)C(C)(CO)C5CCC43C)C12 (stereo not drawn) [zhangnan-8, 23-hydroxyl-dihydrobetulinic acid] , write its reported pEC50.
Return: 5.11

Enquiry: Please supply the value of reported pEC50 for the item CC(C)C1CCC2(C(=O)O)CCC3(C)C(CCC4C5(C)CCC(=O)C(C)(CO)C5CCC43C)C12 (stereo not drawn)
Return: 4.82

Where do the numbers come from? From patent US20120302530A1.
